- EXPERIMENTAL TARGET: SARS-CoV-2 3CL protease (Severe acute respiratory syndrome coronavirus 2, UniProt P0DTD1)
OBSERVED PROPERTY: IC50 (µM)
Provide the reading as a plain figure in µM.

STRUCTURE AS SMILES	OBS VALUE
CNC(=O)Cn1c(=O)nc(Nc2cc3sc(C)nc3cc2C)n(Cc2ccc(F)cc2)c1=O	16

Exercise: Which IC50 value belongs to CNC(=O)Cn1c(=O)[nH]/c(=N\c2cc3sc(C)nc3cc2C)n(Cc2ccccc2F)c1=O ?
Solution: 35

Exercise: How about CNC(=O)Cn1c(=O)nc(Nc2cc3sc(C)nc3cc2C)n(Cc2cc(F)c(F)c(F)c2)c1=O ?
Solution: 3.5

Exercise: How about CNC(=O)Cn1c(=O)nc(Nc2cc3sc(C)nc3cc2C)n(Cc2cccc(F)c2)c1=O ?
Solution: 29

Exercise: How about CNC(=O)Cn1c(=O)[nH]/c(=N\c2cc3cn(C)nc3cc2Cl)n(Cc2cc(F)c(F)c(F)c2)c1=O ?
Solution: 0.096

----------
- TEST PROTOCOL: in vivo
- MEASUREMENT CONDITIONS: male, beagle, dog, po
OBSERVED PROPERTY: bioavailability
Respond with the figure and its unit, in that order.

Exercise: Which bioavailability value belongs to Cn1cnc(Cn2c(=O)[nH]/c(=N\c3cc4cn(C)nc4cc3Cl)n(Cc3cc(F)c(F)cc3F)c2=O)n1 ?
Solution: 64.7%
